# protocolDescription: Leishmania major promastigote growth inhibition, primary screen (AID 1063);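 further: promastigotes grown with compound for 44 hours at 28 °C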
# protocolConditions: Leishmania major promastigotes, resazurin fluorescence viability; at 10 µM
Hit rate of the full screen: of about 200,000 compounds, about 18,000 (9%) were called active. No stated cut-off is given here; in the data, active means inhibition above about 50%; inactive means the rest. The sample as a whole holds a higher share of actives than the screen did.
Classes used: y = active, n = inactive

molecule="COc1ccc(NC(=S)NCC2CCN(c3ccc(OC)cc3)C2)cc1 (centres undefined)" answerlabel=y
molecule=O=C(CCC(=O)c1cccs1)NCc1ccccc1 answerlabel=n
molecule=NS(=O)(=O)c1ccc(NC(=O)COC(=O)c2ccc(Cl)nc2)cc1 answerlabel=n
molecule=COc1ccc(NC(=S)NCCN2CCC(C)CC2)cc1 answerlabel=n

Ref: PubChem BioAssay AID1063
